Biological target: SfurOBP2 (Sogatella furcifera, UniProt V5T759)
Sequence (V5T759 entry or part of it): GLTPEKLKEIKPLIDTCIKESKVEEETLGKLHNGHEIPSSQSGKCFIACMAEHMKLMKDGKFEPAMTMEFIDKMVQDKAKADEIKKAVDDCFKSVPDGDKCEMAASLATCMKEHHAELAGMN
Assay: biochemical
Assay type: binding
Details: ligand concentration 18 (unit not given), replicate column 2 of 3
Description: Thirty-six rice odorants ([He et al., 2014]; [Wang et al., 2017]) and 1-N-phenyl-naphthylamine (1-NPN) were purchased from Sigma-Aldrich (St Louis, MO, USA). […] Fluorescence competitive binding assays were performed on Tecan Spark 10M (Tecan Group Ltd., Männedorf, Switzerland) with the F96 Black ELIAS Plate (Sangon) ([Khuhro et al., 2017]; [Liu et al., 2017]). The solutions were excited at 337 nm and emission spectra were recorded between 390 and 490 nm. […]
Measured Fluorescence competitive binding assay, OBP2 (raw fluorescence reading) of individual entries
Form rule: numeric answer, no unit written next to it.

// known answers, use as guide
| compound | assay system | measured |
| --- | --- | --- |
| CCCCCCCCCCOCCCCCCCCCC | SfurOBP2 (Sogatella furcifera, UniProt V5T759) | 52962 |
| CCCCCCCCCCCCCC | SfurOBP2 (Sogatella furcifera, UniProt V5T759) | 24806 |
| C=C/C(C)=C/C/C=C(\C)CCC=C(C)C | SfurOBP2 (Sogatella furcifera, UniProt V5T759) | 23725 |

Data request: Respond only with Fluorescence competitive binding assay, OBP2 (raw fluorescence reading) recorded for CCCCCCCCCCC
Data returned: 14599

Data request: Return Fluorescence competitive binding assay, OBP2 (raw fluorescence reading) (reported value) for this compound: Cc1cc(C(C)(C)C)c(O)c(C(C)(C)C)c1
Data returned: 12350

Data request: Return Fluorescence competitive binding assay, OBP2 (raw fluorescence reading) (reported value) for this compound: C/C(=C\CO)CCC[C@H](C)CCC[C@H](C)CCCC(C)C
Data returned: 20001

Data request: Please indicate Fluorescence competitive binding assay, OBP2 (raw fluorescence reading) recorded for CCCCCCCCCCCCC=O
Data returned: 17452

Data request: Please report the measured Fluorescence competitive binding assay, OBP2 (raw fluorescence reading) for CCCCCCCCCCCCCCCC(=O)OC [MH(methyl hexadecanoate)]
Data returned: 81927

Data request: Give recorded Fluorescence competitive binding assay, OBP2 (raw fluorescence reading). c1ccc2ccccc2c1
Data returned: 23371

Data request: In one line, give reported Fluorescence competitive binding assay, OBP2 (raw fluorescence reading) of the entry CC(=O)/C=C/C1=C(C)CCCC1(C)C .
Data returned: 12028

Data request: Please look at this compound and report its Fluorescence competitive binding assay, OBP2 (raw fluorescence reading): CCCCCCCC=O
Data returned: 20674

Data request: Determine from records and report Fluorescence competitive binding assay, OBP2 (raw fluorescence reading) for CC(=O)c1ccccc1
Data returned: 15152

Data request: Using known records, supply Fluorescence competitive binding assay, OBP2 (raw fluorescence reading) for CCCCCCCCCCCCCCCC
Data returned: 14899

Data request: Give reported Fluorescence competitive binding assay, OBP2 (raw fluorescence reading) value for CC(C)COC(=O)CCCCC(=O)OCC(C)C [DA(diisobutyl adipate)]
Data returned: 14665

Data request: Supply recorded Fluorescence competitive binding assay, OBP2 (raw fluorescence reading) for C=CC(C)(O)CCC=C(C)CCC=C(C)C (mixture of isomers) here.
Data returned: 11344

Data request: Tell us which Fluorescence competitive binding assay, OBP2 (raw fluorescence reading) value is on record for CCCCCC(C)=O
Data returned: 16085

Data request: Given the compound COC(=O)c1ccccc1 , write its reported Fluorescence competitive binding assay, OBP2 (raw fluorescence reading).
Data returned: 13929

Data request: Report measured Fluorescence competitive binding assay, OBP2 (raw fluorescence reading); entry is CC/C=C\CCO [(Z)-3-hexenol]
Data returned: 12466

Data request: Supply reported Fluorescence competitive binding assay, OBP2 (raw fluorescence reading) belonging to this compound: CCC/C=C/CO [(E)-2-hexenol]
Data returned: 11817

Data request: Provide only the value of recorded Fluorescence competitive binding assay, OBP2 (raw fluorescence reading) for CC1=CC[C@@H](C(C)(C)O)CC1
Data returned: 15960

Data request: Indicate the recorded Fluorescence competitive binding assay, OBP2 (raw fluorescence reading) value for this compound: CCCCCCCC
Data returned: 11451

Data request: Return Fluorescence competitive binding assay, OBP2 (raw fluorescence reading) for the following compound: O=C(c1ccccc1)c1ccccc1
Data returned: 11331

Data request: // fetch Fluorescence competitive binding assay, OBP2 (raw fluorescence reading) given entry CCCCCCCCCCCCCCCCCCC
Data returned: 26767

Data request: Using known records, supply Fluorescence competitive binding assay, OBP2 (raw fluorescence reading) for CCCCCCCCCCCCO
Data returned: 12759

Data request: Recall and state the measured Fluorescence competitive binding assay, OBP2 (raw fluorescence reading) for CCCCCC=O .
Data returned: 16658

* * *

Target: SfurOBP2 (Sogatella furcifera, UniProt V5T759)
Assay: biochemical
Type: binding
Details: ligand concentration 20 (unit not given), replicate column 2 of 3
# Fluorescence competitive binding assay, OBP2 (raw fluorescence reading) per record follows
I'd appreciate a reply containing only the number, no unit.

Before answering, review these 4 worked examples.
| molecule | measured |
| --- | --- |
| C=CC(C)(O)CCC=C(C)CCC=C(C)C (mixture of isomers) [nerolidol] | 11076 |
| CCCCCCCCCCCCCCCC [n-hexadecane] | 12591 |
| C/C(=C\CO)CCC[C@H](C)CCC[C@H](C)CCCC(C)C [plant alcohol] | 20700 |
| C=C(C)C1CC=C(C)CC1 (single isomer, unassigned; (+)) [(+)-limonene] | 13554 |

Now consider a different molecule.
Data request: Supply Fluorescence competitive binding assay, OBP2 (raw fluorescence reading) value. Item: O=C(c1ccccc1)c1ccccc1 [benzophenone]
Data returned: 12242

* * *

Biological target: SfurOBP11 (Sogatella furcifera, UniProt V5T6E3)
Sequence (V5T6E3 entry or part of it): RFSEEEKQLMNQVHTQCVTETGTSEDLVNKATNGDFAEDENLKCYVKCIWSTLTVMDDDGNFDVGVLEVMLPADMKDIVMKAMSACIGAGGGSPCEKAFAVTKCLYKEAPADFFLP
Assay: biochemical
Format: binding
Conditions: ligand concentration 20, replicate 2
# binarize Fluorescence intensity, fluorescence competitive binding assay, OBP11: threshold 20000 inclusive, high side rule met, low side rule not met

| molecule | class assignment |
| --- | --- |
| CCCCCCCCCCCCCC | rule met |

Data request: Does C/C(=C\CO)CCC[C@H](C)CCC[C@H](C)CCCC(C)C have a reported Fluorescence intensity, fluorescence competitive binding assay, OBP11 of at least 20000?
Data returned: rule met

Data request: Decide: is the reported value of Fluorescence intensity, fluorescence competitive binding assay, OBP11 for Cc1cc(C(C)(C)C)c(O)c(C(C)(C)C)c1 equal to or greater than 20000?
Data returned: rule not met

Data request: hey, is Fluorescence intensity, fluorescence competitive binding assay, OBP11 for this one >= 20000? C=C(C)C1CC=C(C)CC1 (single isomer, unassigned; (+)) [(+)-limonene]
Data returned: rule not met

Data request: For this molecule, is measured Fluorescence intensity, fluorescence competitive binding assay, OBP11 20000 or higher? c1ccc2ccccc2c1
Data returned: rule met

Data request: Is Fluorescence intensity, fluorescence competitive binding assay, OBP11 at least 20000? Consider Cc1ccc(C(C)C)cc1
Data returned: rule met

Data request: Given the entry C=C1CC/C=C(\C)CC[C@@H]2[C@@H]1CC2(C)C , answer whether its Fluorescence intensity, fluorescence competitive binding assay, OBP11 meets or surpasses 20000.
Data returned: rule met

Data request: Given COC(=O)c1ccccc1 , state whether its Fluorescence intensity, fluorescence competitive binding assay, OBP11 is at least 20000.
Data returned: rule met

Data request: Answer whether Fluorescence intensity, fluorescence competitive binding assay, OBP11 of CCCCCCCCCCC is greater than or equal to 20000.
Data returned: rule met

Data request: Entry CCCCCCCC=O : is its Fluorescence intensity, fluorescence competitive binding assay, OBP11 no less than 20000?
Data returned: rule met

Data request: Hi team, for O=C(c1ccccc1)c1ccccc1 , is the recorded Fluorescence intensity, fluorescence competitive binding assay, OBP11 at or above 20000?
Data returned: rule not met

* * *

Target: SfurOBP11 (Sogatella furcifera, UniProt V5T6E3)
Test: biochemical
Assay type: binding
Conditions: ligand concentration 8, replicate 1
measurement type: Fluorescence intensity, fluorescence competitive binding assay, OBP11
Just the number.

Reference set, count: 5
| molecule | measured |
| --- | --- |
| CCCCCCCCCCCCCCCCCCC [n-nonadecane] | 38326 |
| CCCCCCCCCCOCCCCCCCCCC [didecyl ether] | 52547 |
| C=C1CC/C=C(\C)CC[C@@H]2[C@@H]1CC2(C)C [β-caryophyllene] | 21931 |
| C=CC(C)(O)CCC=C(C)CCC=C(C)C (mixture of isomers) [nerolidol] | 24916 |
| CCC/C=C/CO [(E)-2-hexenol] | 27040 |

Field: next molecule
Data request: Answer with the recorded Fluorescence intensity, fluorescence competitive binding assay, OBP11 for the molecule listed here: CCCCCCCCCCCCCC [n-tetradecane]
Data returned: 26278

* * *

Target: SfurOBP11 (Sogatella furcifera, UniProt V5T6E3)
Experiment: biochemical
Format: binding
Details: ligand concentration 6, replicate 2
measurement type: Fluorescence intensity, fluorescence competitive binding assay, OBP11
No unit in the answer, only the number.

Data request: Could you please provide reported Fluorescence intensity, fluorescence competitive binding assay, OBP11 for CCCCCCCCCCOCCCCCCCCCC ? Thanks!
Data returned: 51596

Data request: Dear colleague, please send me the reported Fluorescence intensity, fluorescence competitive binding assay, OBP11 for CCCCCCCC=O when you can.
Data returned: 29174
